Each recorded value in this set is attributed to patent US9586949B2.

biological target: PI3Kγ (p110γ) Recombinant Human Protein (Homo sapiens (Human), UniProt P48736); assay: PI3K-γ Scintillation Proximity Assay; settings: 20 μM PIP2, 2 μM ATP, 13 nM PI3Kγ, 120 min; read-out: PI3K-gamma SPA IC50
Sequence (P48736 whole entry): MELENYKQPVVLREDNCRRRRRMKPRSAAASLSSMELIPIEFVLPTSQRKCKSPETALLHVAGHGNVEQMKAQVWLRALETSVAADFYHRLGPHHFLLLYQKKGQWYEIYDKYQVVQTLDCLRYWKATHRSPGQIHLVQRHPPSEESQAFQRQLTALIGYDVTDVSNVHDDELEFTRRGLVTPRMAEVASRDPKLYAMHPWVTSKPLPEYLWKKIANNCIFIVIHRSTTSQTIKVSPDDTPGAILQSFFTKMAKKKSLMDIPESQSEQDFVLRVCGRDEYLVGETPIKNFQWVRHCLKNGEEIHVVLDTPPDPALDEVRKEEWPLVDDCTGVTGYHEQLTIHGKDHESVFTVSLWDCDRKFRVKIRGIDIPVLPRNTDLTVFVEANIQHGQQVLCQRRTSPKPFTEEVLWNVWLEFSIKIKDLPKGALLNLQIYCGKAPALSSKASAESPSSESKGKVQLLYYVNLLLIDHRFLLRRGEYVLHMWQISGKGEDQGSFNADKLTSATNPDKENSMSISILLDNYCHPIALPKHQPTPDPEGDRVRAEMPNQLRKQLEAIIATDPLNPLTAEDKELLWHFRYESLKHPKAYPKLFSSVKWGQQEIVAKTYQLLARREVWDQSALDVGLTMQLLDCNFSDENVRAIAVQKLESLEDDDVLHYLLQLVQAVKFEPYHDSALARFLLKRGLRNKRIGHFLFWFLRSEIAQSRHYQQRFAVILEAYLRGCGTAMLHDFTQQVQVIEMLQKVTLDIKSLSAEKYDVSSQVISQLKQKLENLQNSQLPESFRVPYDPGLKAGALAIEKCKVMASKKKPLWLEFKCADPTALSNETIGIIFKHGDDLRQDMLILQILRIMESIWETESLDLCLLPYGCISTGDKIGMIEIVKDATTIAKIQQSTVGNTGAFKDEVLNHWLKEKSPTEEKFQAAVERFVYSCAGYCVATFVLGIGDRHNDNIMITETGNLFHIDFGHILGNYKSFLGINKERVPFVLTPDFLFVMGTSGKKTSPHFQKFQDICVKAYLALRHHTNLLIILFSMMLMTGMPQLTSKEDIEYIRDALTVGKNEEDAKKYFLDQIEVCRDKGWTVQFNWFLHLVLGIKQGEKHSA
Structures can show the parent of a compound that is named as a salt.
READOUT KIND: IC50

Some compounds with known IC50 results, for comparison:
>  <COMPOUND>
COc1cncc(-c2ccc3nc(-c4ncc[nH]4)oc3c2)c1 [Example 1, trifluoroacetate]

>  <IC50>
< 1000 nM

$$$$
>  <COMPOUND>
COc1cncc(-c2ccc3nc(-c4nc5cc(C)ccc5[nH]4)oc3c2)c1

>  <IC50>
< 250 nM

$$$$
>  <COMPOUND>
COc1cncc(-c2ccc3nc(-c4cc(-c5ccccc5)n[nH]4)oc3c2)c1

>  <IC50>
< 5000 nM

$$$$

Request: Bench note: what IC50 did CN(C)S(=O)(=O)c1cncc(-c2ccc3nc(-c4nc5ccccc5[nH]4)oc3c2)c1 show?
Response: < 250 nM

---

molecular target: PI3Kγ (p110γ) Recombinant Human Protein (Homo sapiens (Human), UniProt P48736); test: PI3K-γ Scintillation Proximity Assay; details: 20 μM PIP2, 2 μM ATP, 13 nM PI3Kγ, 120 min; read-out: PI3K-gamma SPA IC50
Listed here: items and their measured IC50.

Sample records with IC50:
>  <COMPOUND>
FC(F)Oc1cncc(-c2ccc3nc(-c4nc5ccccc5[nH]4)oc3c2)c1

>  <RESULT>
< 250 nM

$$$$
>  <COMPOUND>
CCn1ncc2ncc(-c3ccc4nc(-c5nc6ccccc6[nH]5)oc4c3)cc21 [Example 57, tris(trifluoroacetate)]

>  <RESULT>
< 250 nM

$$$$
>  <COMPOUND>
Cc1nc(-c2nc3ccc(-c4cncc(S(C)(=O)=O)c4)cc3o2)[nH]c1C [Example 62, bis(trifluoroacetate)]

>  <RESULT>
< 1000 nM

$$$$

Next, consider the following compound.
Request: Find the measured IC50: item COc1cncc(-c2ccc3nc(-c4nc5ccc(Br)cc5[nH]4)oc3c2)c1 , target or system PI3Kγ (p110γ) Recombinant Human Protein (Homo sapiens (Human), UniProt P48736).
Response: < 1000 nM

---

target: PI3Kδ (p110δ/p85α) Recombinant Human Protein (Homo sapiens (Human), UniProt O00329); assay: PI3Kδ Scintillation Proximity Assay; settings: 20 μM PIP2, 2 μM ATP, 3.4 nM PI3Kδ, 120 min; read-out: PI3K-delta SPA IC50
Sequence (O00329 whole entry): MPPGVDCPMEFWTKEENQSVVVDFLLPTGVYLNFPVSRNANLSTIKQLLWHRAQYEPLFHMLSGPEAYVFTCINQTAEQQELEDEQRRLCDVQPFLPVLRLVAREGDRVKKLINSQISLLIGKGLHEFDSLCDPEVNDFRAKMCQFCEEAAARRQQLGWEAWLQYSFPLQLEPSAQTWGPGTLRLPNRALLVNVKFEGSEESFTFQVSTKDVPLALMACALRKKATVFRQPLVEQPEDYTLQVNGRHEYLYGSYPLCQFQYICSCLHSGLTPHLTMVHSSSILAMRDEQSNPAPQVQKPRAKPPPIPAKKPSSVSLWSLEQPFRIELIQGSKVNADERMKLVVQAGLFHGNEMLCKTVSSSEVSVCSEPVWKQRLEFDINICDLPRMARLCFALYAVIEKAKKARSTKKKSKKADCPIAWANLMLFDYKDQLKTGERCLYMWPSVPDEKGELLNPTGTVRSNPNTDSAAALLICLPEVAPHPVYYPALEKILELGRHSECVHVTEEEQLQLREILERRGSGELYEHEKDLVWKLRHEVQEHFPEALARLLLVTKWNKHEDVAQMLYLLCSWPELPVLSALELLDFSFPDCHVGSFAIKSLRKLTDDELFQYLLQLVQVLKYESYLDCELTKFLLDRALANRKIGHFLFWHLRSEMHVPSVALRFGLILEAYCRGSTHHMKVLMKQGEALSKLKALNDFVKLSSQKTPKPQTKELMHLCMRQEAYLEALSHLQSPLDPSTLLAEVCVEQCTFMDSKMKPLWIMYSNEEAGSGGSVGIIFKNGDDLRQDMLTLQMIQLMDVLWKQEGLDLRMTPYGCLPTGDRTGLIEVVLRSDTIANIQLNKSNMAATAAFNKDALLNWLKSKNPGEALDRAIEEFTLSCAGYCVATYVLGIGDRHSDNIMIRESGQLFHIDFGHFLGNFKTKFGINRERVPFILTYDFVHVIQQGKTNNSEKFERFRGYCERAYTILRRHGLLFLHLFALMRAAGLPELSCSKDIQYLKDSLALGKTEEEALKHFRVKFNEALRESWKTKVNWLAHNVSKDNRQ
Sequence (P27986 whole entry partner): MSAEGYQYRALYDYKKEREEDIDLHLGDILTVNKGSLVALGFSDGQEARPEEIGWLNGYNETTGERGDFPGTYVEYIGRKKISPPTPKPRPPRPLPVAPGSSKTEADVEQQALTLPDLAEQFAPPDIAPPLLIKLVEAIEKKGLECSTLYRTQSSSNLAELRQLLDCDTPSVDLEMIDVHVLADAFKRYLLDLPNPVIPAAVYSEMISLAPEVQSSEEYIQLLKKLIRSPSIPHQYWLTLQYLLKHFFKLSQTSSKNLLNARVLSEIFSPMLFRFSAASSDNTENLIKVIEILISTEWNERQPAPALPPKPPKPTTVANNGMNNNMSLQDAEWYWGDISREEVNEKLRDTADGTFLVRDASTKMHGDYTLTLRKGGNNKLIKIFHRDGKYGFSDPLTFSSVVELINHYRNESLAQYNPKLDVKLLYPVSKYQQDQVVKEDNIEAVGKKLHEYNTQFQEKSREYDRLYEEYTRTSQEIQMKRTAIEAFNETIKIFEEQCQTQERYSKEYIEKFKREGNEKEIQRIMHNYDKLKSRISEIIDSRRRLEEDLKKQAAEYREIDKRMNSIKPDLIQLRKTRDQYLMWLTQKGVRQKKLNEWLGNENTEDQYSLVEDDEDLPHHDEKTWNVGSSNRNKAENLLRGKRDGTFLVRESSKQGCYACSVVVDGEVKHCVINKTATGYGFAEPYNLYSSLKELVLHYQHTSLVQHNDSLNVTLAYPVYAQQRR
Measured IC50, listed per entry for reference.

>  <MOLECULE>
CN1CCN(S(=O)(=O)Nc2cncc(-c3ccc4nc(-c5nc6ccccc6[nH]5)oc4c3)c2)CC1 [Example 31]

>  <IC50>
< 250 nM

$$$$
>  <MOLECULE>
FC(F)Oc1cncc(-c2ccc3nc(-c4nc5ccccc5[nH]4)oc3c2)c1 [Example 16]

>  <IC50>
< 1000 nM

$$$$
>  <MOLECULE>
COc1cc(-c2ccc3nc(-c4nc5ccccc5[nH]4)oc3c2)cnc1F [Example 69, bis(trifluoroacetate)]

>  <IC50>
≥ 5000 nM

$$$$
>  <MOLECULE>
O=S(=O)(Nc1cncc(-c2ccc3nc(-c4ncc[nH]4)oc3c2)c1)c1ccc(F)cc1 [Example 39]

>  <IC50>
< 250 nM

$$$$
>  <MOLECULE>
CN(C)S(=O)(=O)Nc1cc(-c2ccc3nc(-c4nc5ccccc5[nH]4)oc3c2)cnc1F [Example 23]

>  <IC50>
< 250 nM

$$$$

Request: Item Cc1n[nH]c2ccc(-c3ccc4nc(-c5nc6ccccc6[nH]5)oc4c3)cc12 [Example 50] has what recorded IC50?
Response: < 250 nM

Request: And for Cc1ncc(-c2ccc3nc(-c4nc5ccccc5[nH]4)oc3c2)cc1NS(=O)(=O)c1ccc(F)cc1 [Example 28] ?
Response: < 250 nM

Request: Continue with COc1cncc(-c2ccc3nc(-c4nc5cc(C)ccc5[nH]4)oc3c2)c1 [Example 11]
Response: < 5000 nM

---

Recorded pIC50 for the following compounds
target: PI3Kγ (p110γ) Recombinant Human Protein (Homo sapiens (Human)); experiment: PI3K-γ Scintillation Proximity Assay; conditions: 20 μM PIP2, 2 μM ATP, 13 nM PI3Kγ, 120 min; read-out: PI3K-gamma SPA IC50
pIC50: −log10 of the molar value.

>  <COMPOUND>
CC(=O)Nc1cncc(-c2ccc3nc(-c4nc5ccccc5[nH]4)oc3c2)c1

>  <RESULT>
> 6.00

$$$$
>  <COMPOUND>
O=S(=O)(Nc1cc(-c2ccc3nc(-c4nc5ccccc5[nH]4)oc3c2)cnc1F)c1ccc(F)cc1

>  <RESULT>
> 6.60

$$$$
>  <COMPOUND>
OC(c1cncc(-c2ccc3nc(-c4nc5c([nH]4)CCCC5)oc3c2)c1)C(F)(F)F (stereo not shown)

>  <RESULT>
> 6.60

$$$$
>  <COMPOUND>
COc1cncc(-c2ccc3nc(-c4nc5ccccc5[nH]4)ccc3c2)c1

>  <RESULT>
> 6.00

$$$$
>  <COMPOUND>
Cc1ncc(-c2ccc3nc(-c4nc5ccccc5[nH]4)oc3c2)cc1NS(=O)(=O)CC(F)(F)F [Example 76, bis(trifluoroacetate)]

>  <RESULT>
> 6.60

$$$$
>  <COMPOUND>
CCNS(=O)(=O)c1cncc(-c2ccc3nc(-c4nc5ccccc5[nH]4)oc3c2)c1 [Example 59, bis(trifluoroacetate)]

>  <RESULT>
> 6.60

$$$$

In the following, a different compound is considered.
Request: # pIC50 lookup, item O=S(=O)(CC(F)(F)F)Nc1cc(-c2ccc3nc(-c4nc5ccccc5[nH]4)oc3c2)cnc1F [Example 75, bis(trifluoroacetate)]
Response: > 6.60

---

target: PI3Kδ (p110δ/p85α) Recombinant Human Protein (Homo sapiens (Human)); experiment: PI3Kδ Scintillation Proximity Assay; conditions: 20 μM PIP2, 2 μM ATP, 3.4 nM PI3Kδ, 120 min; read-out: PI3K-delta SPA IC50
Structures can show the parent of a compound that is named as a salt.
READOUT KIND: IC50

>  <MOLECULE>
CN(C)S(=O)(=O)Nc1cncc(-c2ccc3nc(-c4ncc[nH]4)oc3c2)c1

>  <RESULT>
< 1000 nM

$$$$
>  <MOLECULE>
CCS(=O)(=O)Nc1cc(-c2ccc3nc(-c4nc5c([nH]4)CCCC5)oc3c2)cnc1OC

>  <RESULT>
< 250 nM

$$$$
>  <MOLECULE>
COc1cncc(-c2ccc3nc(-c4ccc[nH]4)oc3c2)c1 [Example 3, trifluoroacetate]

>  <RESULT>
< 5000 nM

$$$$
>  <MOLECULE>
CN(C)S(=O)(=O)Nc1cncc(-c2ccc3nc(-c4nc5ccccc5[nH]4)oc3c2)c1

>  <RESULT>
< 1000 nM

$$$$
>  <MOLECULE>
O=S(=O)(CC(F)(F)F)Nc1cncc(-c2ccc3nc(-c4nc5ccccc5[nH]4)oc3c2)c1 [Example 77, bis(trifluoroacetate)]

>  <RESULT>
< 1000 nM

$$$$

Request: # input molecule: COc1cncc(-c2ccc3nc(-c4cnc(-c5ccccc5)[nH]4)oc3c2)c1 ; wanted: its IC50
Response: ≥ 5000 nM

Request: Also need CCS(=O)(=O)Nc1cncc(-c2ccc3nc(-c4nc(C)c(C)[nH]4)oc3c2)c1 [Example 63, bis(trifluoroacetate)] , thanks.
Response: < 1000 nM

Request: Try CCNS(=O)(=O)c1cncc(-c2ccc3nc(-c4nc5ccccc5[nH]4)oc3c2)c1 [Example 59, bis(trifluoroacetate)] next.
Response: ≥ 5000 nM

Request: What would you report for COc1cncc(-c2ccc3nc(-c4nc5ccccc5[nH]4)ccc3c2)c1 ?
Response: ≥ 5000 nM

Request: Next up: CN(C)c1cncc(-c2ccc3nc(-c4nc5ccccc5[nH]4)oc3c2)c1
Response: < 5000 nM

Request: Then what about the molecule CCS(=O)(=O)Nc1cc(-c2ccc3nc(-c4nc(C)c(C)[nH]4)oc3c2)cnc1OC [Example 65, bis(trifluoroacetate)] ?
Response: < 250 nM

Request: Would you kindly repeat that for CCS(=O)(=O)Nc1cc(-c2ccc3nc(-c4nc5ccccc5[nH]4)oc3c2)cnc1OC [Example 79, bis(trifluoroacetate)] ?
Response: < 250 nM

Request: Same read-out for CCn1ncc2ncc(-c3ccc4nc(-c5nc6ccccc6[nH]5)oc4c3)cc21 [Example 57, tris(trifluoroacetate)] ?
Response: < 1000 nM

Request: Please answer likewise for O=S(=O)(Nc1cc(-c2ccc3nc(-c4nc5ccccc5[nH]4)oc3c2)cnc1F)c1ccc(F)cc1
Response: < 250 nM

Request: Ok, now O=S(=O)(Nc1cc(-c2ccc3nc(-c4nc5ccccc5[nH]4)oc3c2)cnc1Cl)c1ccc(F)cc1
Response: < 250 nM
